Listed below: red/green cell ratio (normalised) values for each entry.
- Measurement notes: differential killing of epithelial or mesenchymal cells, primary screen, imaging, PC-3E GFP, TEM4-18 mCherry, co-culture (AID 1345086);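 note: normalised mesenchymal count divided by normalised epithelial count so high means epithelial killing; cells exposed to compound for 72 h before imaging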
- Cond: imaging cell counts, at 1 µM, actives lie on both sides, counts scaled to control wells, 1 = unselective

Molecule	red/green cell ratio (normalised)
NCCOB(c1ccccc1)c1ccccc1	1.1
Cc1cc2nc3c(=O)[nH]c(=O)nc-3n(CC(O)C(O)C(O)CO)c2cc1C (configuration not stated)	0.96
CCO[C@H]1OC(C(=O)OC)C(OC(=O)CCC(=O)O)[C@H](OC(=O)c2ccccc2)[C@@H]1OC(=O)c1ccccc1 (some centres not stated)	0.91
C[C@H]1CC2C([C@@H](O)C[C@@]3(C)C2CC[C@]3(O)C(=O)CO)[C@@]2(C)C=CC(=O)C=C12 (some centres not stated)	1.21
CCC(NC(C)C)C(O)c1ccc(O)c(O)c1 (configuration not stated)	1.04
CCCC(=O)O[C@]1(C(=O)CO)CCC2[C@@H]3CCC4=CC(=O)CC[C@]4(C)C3[C@@H](O)C[C@@]21C (some centres not stated)	1.26
CO[C@H]1CC(O[C@@H]2/C(C)=C/C[C@@H]3C[C@@H](C[C@]4(CC[C@H](C)[C@@H](C5CCCCC5)O4)O3)OC(=O)[C@@H]3C=C(C)/C(=N/O)C4OC/C(=C\C=C\[C@@H]2C)[C@]43O)O[C@@H](C)C1O (some centres not stated)	1.11
N[C@H](Cc1cc(I)c(Oc2ccc(O)c(I)c2)c(I)c1)C(=O)O	0.97
COc1ccc(-c2oc3ccccc3c(=O)c2OC)cc1	0.92
C[N+]1(C)C2CC(OC(=O)[C@@H](CO)c3ccccc3)CC1C1OC12 (some centres not stated)	1.4
COc1ccc(C2Sc3ccccc3N(CCN(C)C)C(=O)C2OC(C)=O)cc1 (configuration not stated)	1.25
COc1cc(-c2coc3cc(O)c(OC)c(O)c3c2=O)cc(O)c1OC	0.95
C[C@]12C=CC(=O)C=C1CCC1C2[C@@H](O)C[C@@]2(C)C1CC[C@]2(O)C(=O)COP(=O)(O)O (some centres not stated)	1.33
C=C1CC[C@@]2(C)[C@H](C)CC[C@H](O)[C@@]2(CCC=C(C)C)[C@@H]1Cc1c[nH]c2ccccc12	0.97
C[C@]1(Cn2ccnn2)C(C(=O)O)N2C(=O)CC2S1(=O)=O (some centres not stated)	0.89
COc1ccc(-c2coc3cc(O)ccc3c2=O)c(OC)c1	1.02
O=C1SCN(Cc2ccccc2)CN1Cc1ccccc1	0.9
COc1cc(N)cc(OC)c1	0.94
O=C(O)/C=C/C=C/c1ccccc1	1.01
CCC(C)C(=O)O[C@H]1C[C@H](O)C=C2C=C[C@H](C)[C@H](CC[C@@H](O)C[C@@H](O)CC(=O)O)C21 (some centres not stated)	0.96
[N-]=[N+]=NC1[C@@H](O)C2OC(c3ccccc3)OCC2O[C@@H]1Sc1ccccc1 (some centres not stated)	1.1
CC(C)(C)Oc1c(F)c(F)nc(F)c1Cl	0.97
CC1/C=C/C=C/C=C/C=C/C=C/C=C/C=C/C(O[C@@H]2O[C@H](C)[C@H](O)[C@@H](O)[C@@H]2N)CC(O)C(C(=O)O)C(O)CC(=O)CC(O)CC(O)CC(O)CC(=O)CCCC(=O)CC(=O)OC1C(C)CC(C)C(O)CC(=O)c1ccc(N)cc1 (some centres not stated)	0.94
CC(=O)OC1(C)CC[C@@]23CC1C(C)(C)[C@@H]2CC[C@H]3C (some centres not stated)	0.99
O=C(O)c1cn(C2CC2)c2cc(N3CCN(c4ccc(Cl)cc4Cl)CC3)c(F)cc2c1=O	0.98
CC(C)CC(N)=O	0.8
CC(=O)OCC(=O)[C@@]1(O)[C@H](C)CC2C3CCC4=CC(=O)C=C[C@]4(C)[C@@]3(F)[C@@H](O)C[C@@]21C (some centres not stated)	1.26
C/C1=C/CC(C)(C)/C=C/C/C(C)=C/CC1	0.95
CCNC1CN(CCCOC)S(=O)(=O)c2sc(S(N)(=O)=O)cc21 (configuration not stated)	0.72
CC(C)CC1OC23SCC(c4ccccc4)N2C(=O)C1C(C)(C)S3 (configuration not stated)	0.9
CC(C)CCCC(C)C1CCC2C3CC(=O)[C@H]4C[C@@H](O)CC[C@]4(C)C3CC[C@]12C (some centres not stated)	1.01
C#C[C@]1(O)CCC2C3CCC4=CC(=O)CC[C@@H]4C3CC[C@@]21C (some centres not stated)	0.86
Cc1c(O)c(=O)n(-c2ccccc2)n1C	0.78
Nc1nc(N)c2nc(CNc3ccc(C(=O)NC(CCC(=O)O)C(=O)O)cc3)cnc2n1 (configuration not stated)	0.95
CCN1CC(CCN2CCOCC2)C(C(c2ccccc2)c2ccccc2)C1=O (configuration not stated)	0.72
Cc1ccc([C@H](C)CC(=O)N2C(=S)O[C@H]3Cc4ccccc4[C@H]32)cc1	0.95
C[C@H]1O[C@H](O[C@H]2[C@H](O)[C@@H](O)[C@@H](O[C@H]3[C@H](O)[C@@H](O)C(O)O[C@@H]3CO)O[C@@H]2CO)[C@H](O)[C@@H](O)[C@@H]1N[C@H]1C=C(CO)[C@@H](O)[C@H](O)[C@H]1O (some centres not stated)	0.91
